B1: Twister Ribozyme (parent)
chain: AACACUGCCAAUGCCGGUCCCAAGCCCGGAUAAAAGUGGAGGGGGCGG

variants of: B1; experiment: self-cleavage, relative activity (ratio to wild type); higher = more cleavage; co-transcriptional
Assign self-cleavage to each entry below.
Please respond with just the number, no unit label.

Find the recorded self-cleavage belonging to A33U G42A and report it.
0.283

Same lookup for A30G A33C , please.
1.06

Same lookup for G13A G44A , please.
1.04

Same lookup for C9A G43C , please.
0.0978

Same lookup for C9A G47U , please.
0.244

Same lookup for C20A U37C , please.
0.111

Same lookup for C9U A22G , please.
0.0671

Same lookup for C5G G45U , please.
0.369

Same lookup for C14G A40U , please.
0.0589

Same lookup for A30C U37G , please.
0.306

Same lookup for A23U A35C , please.
0.71

Same lookup for C25U C46U , please.
0.75

Same lookup for A1U A11C , please.
0.0741

Same lookup for A23C G29A , please.
0.196

Same lookup for C26U C27U , please.
0.115

Same lookup for A11G C20U , please.
0.797
